assay: chemical genetic growth profiling, strain panel (AID 1159580);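 note: tested at 20 µM; growth read once vehicle control cultures reached saturation at 30 °C; 1 = growth at the plate median or of vehicle wells; lower values mean less growth of the strain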; settings: S. cerevisiae deletion strains, growth OD, locus YLR058C, strain SHM2 (second series), hits give low values
The campaign covered roughly 5,500 compounds. About 2,000 (36%) were called active. Not shown: some 18% with an inconclusive outcome. Some of the results follow.
Readings of normalized growth for the listed compounds
RECORDED_ENDPOINT: normalized growth

• COC(=O)c1ccccc1-n1cccc1C(=O)OC = 0.989
• COC(=O)c1csc2c(C(F)(F)F)cc(N3CCN(S(=O)(=O)c4ccc(C)cc4)CC3)nc12 = 1.01
• Cc1c(-n2cccc2)cc2c(c1[N+](=O)[O-])C(C)(C)CC2(C)C = 0.994
• O=C(O)C12CC3CC(CC(Br)(C3)C1)C2 = 1
• O=C(NC(=S)Nc1ccc(Cl)cc1)c1ccc([N+](=O)[O-])o1 = 0.984
• O=C1CCC(=O)N1CNc1ccccc1OC(F)(F)F = 0.992
• Cc1oc(-c2ccccc2)cc1C(=O)N1CCN(c2ccc(C(F)(F)F)cn2)CC1 = 0.977
• COc1ccccc1N1CCN(S(=O)(=O)c2ccc(C(F)(F)F)cc2)CC1 = 0.987
• Cc1cccc(NCN2C(=O)CCC2=O)n1 = 0.97
• O=[N+]([O-])c1ccc(C2N(Cc3ccccc3)CCC3CCCCN32)cc1 (stereo unspecified) = 1.01
• CCc1cccc(C)c1NC(=O)N1CCN(C(=O)OC(C)(C)C)CC1 = 0.99

* * *

test: chemical genetic growth profiling, strain panel (AID 1159580);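 note: tested at 20 µM; growth read once vehicle control cultures reached saturation at 30 °C; 1 = growth at the plate median or of vehicle wells; lower values mean less growth of the strain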; conditions: S. cerevisiae deletion strains, growth OD, locus YKR026C, strain gcn3, hits give low values
About 2,000 (36%) of roughly 5,500 compounds were called active. Another 18% or so got no clear call; they are omitted. This is one part of the list.
Readings of normalized growth for the listed compounds
RECORDED_ENDPOINT: normalized growth

• C=C1CC2C(CCC3(C)C(=O)CCC23)C2(C)C=CC(=O)C=C12 (stereo not given) = 0.939 (inactive)
• COP(=S)(OC)SCn1nnc2ccccc2c1=O = 1.01 (inactive)
• CC(C)(O)CC[C@@H](O)[C@](C)(O)C1CC[C@@]2(O)C3=CC(=O)C4C[C@@H](O)[C@@H](O)C[C@]4(C)C3CC[C@]12C (stereo not given in full) = 0.989 (inactive)
• CC(=O)O[C@H]1CC2CCC3C(CC[C@@]4(C)C3C[C@H]([N+]3(C)CCCCC3)[C@@H]4OC(C)=O)[C@@]2(C)C[C@@H]1[N+]1(C)CCCCC1 (stereo not given in full) = 1 (inactive)
• CC(=O)N[C@@H](CC(=O)O)C(=O)O = 1.01 (inactive)
• C[C@H]1C(=O)O[C@@H]2CCN3CC=C(COC(=O)[C@](C)(O)[C@]1(C)O)[C@H]23 = 0.986 (inactive)
• Cn1cnc([N+](=O)[O-])c1Sc1ncnc2nc[nH]c12 = 1.01 (inactive)
• C[N+]1(C)CCc2cc3c(cc2[C@H]1C1OC(=O)c2c1ccc1c2OCO1)OCO3 (stereo not given in full) = 0.991 (inactive)
• Nc1ncnc2c1ncn2[C@@H]1O[C@H](CO)[C@@H](O)[C@@H]1O = 1.01 (inactive)
• CC(C)=CCOc1cc2oc(=O)ccc2cc1O = 0.927 (inactive)
• CC(=O)OC1CCC23C(=O)OC45CCC(C6=CC(=O)OC6)C4(C)CCC2C5CCC3(O)C1 (stereo not given) = 0.976 (inactive)
• COc1ccc2ccc(=O)oc2c1CC=C(C)C = 0.906 (active)
• C[C@]12C=CC(=O)C=C1CCC1C2CC[C@]2(C)C(=O)CCC12 (stereo not given in full) = 0.962 (inactive)
• CC(=O)c1ccc2c(c1)N(CCCN(C)C)c1ccccc1S2 = 0.979 (inactive)
• N#C/C(=C\c1ccc(O)cc1)C(=O)O = 0.97 (inactive)
• COc1cc2ccc(=O)oc2c2ccoc12 = 0.999 (inactive)
• CC(C)=CCC1=C(O)c2ccccc2C(=O)C1=O = 0.775 (active)
• O=C(/C=C/C(=O)Oc1ccccc1C(=O)O)Oc1ccccc1C(=O)O = 0.968 (inactive)
• CC1=C(C(=O)O)N2C(=O)[C@@H](NC(=O)[C@H](N)C3=CCC=CC3)C2SC1 (stereo not given in full) = 1.02 (inactive)
• Cn1c([N+](=O)[O-])cnc1COC(N)=O = 0.998 (inactive)
• COc1ccc2[nH]cc(CCNC(C)=O)c2c1 = 0.97 (inactive)
• CC1=C2CCC3C(CC[C@]4(C)C(=O)CCC34)[C@@]2(C)CCC1=O (stereo not given in full) = 0.998 (inactive)
• O=C1c2ccccc2C(=O)c2c(O)c(O)cc(O)c21 = 0.665 (active)
• COc1cc(OC)c(C(C)=O)c(O)c1C = 0.93 (inactive)
• CCOc1ccc(Cc2nccc3cc(OCC)c(OCC)cc23)cc1OCC = 0.975 (inactive)
• O=C(CCCN1CC=C(n2c(=O)[nH]c3ccccc32)CC1)c1ccc(F)cc1 = 0.948 (inactive)
• CC(C)=CCC/C(C)=C/COc1ccc2ccc(=O)oc2c1 = 0.99 (inactive)
• C[C@]12CCC3c4ccc(O)cc4CCC3C1CC[C@@H]2OC(=O)CCC1CCCC1 (stereo not given in full) = 1.01 (inactive)
• O=c1ccc2cc(O[C@@H]3O[C@H](CO)[C@@H](O)[C@H](O)[C@H]3O)c(O)cc2o1 = 0.964 (inactive)
• COc1cc2ccc(=O)oc2cc1O = 0.983 (inactive)
• CC(=O)OCC(=O)[C@@]1(O)CCC2C3CCC4=CC(=O)CC[C@]4(C)[C@@]3(F)[C@@H](O)C[C@@]21C (stereo not given in full) = 1.02 (inactive)
• O=C1c2ccc(O)c(O)c2C(=O)c2c(O)ccc(O)c21 = 0.81 (active)
• Cc1c(N(C)CS(=O)(=O)O)c(=O)n(-c2ccccc2)n1C = 1.01 (inactive)
• O=C1c2ccccc2C(=O)c2c1ccc(O)c2O = 0.744 (active)
• COc1cc(O)c(C(=O)O)c(O)c1 = 0.986 (inactive)
• CCCCC(=O)O[C@H]1CCC2C3CCc4cc(O)ccc4C3CC[C@@]21C (stereo not given in full) = 1.01 (inactive)
• O=c1n(CCCN2CCN(c3cccc(Cl)c3)CC2)nc2ccccn12 = 0.984 (inactive)
• CC1(C)S[C@@H]2[C@H](NC(=O)COc3ccccc3)C(=O)N2[C@H]1C(=O)O = 0.983 (inactive)
• O=c1[nH]c2ccccc2n1CCCN1CCC(n2c(=O)[nH]c3cc(Cl)ccc32)CC1 = 0.982 (inactive)
• COc1cc(O)c(C)c(O)c1 = 0.995 (inactive)
• FC(F)(F)COCC(F)(F)F = 1.01 (inactive)
• COc1c(O)cc(O)cc1O = 0.991 (inactive)
• O=C1c2ccccc2-c2cccc3cccc1c23 = 0.965 (inactive)
• N#Cc1ccc2c(c1)N(CCCN1CCC(O)CC1)c1ccccc1S2 = 0.995 (inactive)
• CSCCC(NC=O)C(=O)NC(CC(C)C)C(=O)NC(Cc1ccccc1)C(=O)O (stereo not given) = 0.994 (inactive)

* * *

Readings of normalized growth for the listed compounds
experiment: chemical genetic growth profiling, strain panel (AID 1159580);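 note: tested at 20 µM; growth read once vehicle control cultures reached saturation at 30 °C; 1 = growth at the plate median or of vehicle wells; lower values mean less growth of the strain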; conditions: S. cerevisiae deletion strains, growth OD, locus YKL203C, strain TOR2, hits give low values
In all, about 5,500 compounds went through this assay and about 2,000 (36%) were called active. About 18% were inconclusive and are not listed. Some of the results follow.
RECORDED_ENDPOINT: normalized growth

• O=S(=O)(Nc1ccc(-n2nc(C(F)(F)F)cc2-c2cccs2)cc1)c1ccc(F)cc1 = 1.04
• CCOC(=O)C1C(c2ccc(Br)cc2)C(C(=O)OCC)C(O)(C(F)(F)F)NC1(O)C(F)(F)F (stereo not drawn) = 1.03
• O=C(N/N=C\c1cc(Cl)cc(Cl)c1O)c1ccccc1Oc1ccccc1 = 0.969
• Cc1c(Cl)cccc1N=C1SCC(=O)N1Cc1ccco1 = 0.954
• O=C(O)c1cccc2cccc(C(=O)O)c12 = 0.108
• CC(=O)Oc1ccc2c(=O)c(Oc3ccc(Cl)cc3)c(C)oc2c1 = 0.968
• Cc1c(C(=O)NCCNc2ccc(C(F)(F)F)cc2[N+](=O)[O-])cnn1-c1ccc(F)cc1 = 1.01
• C(=NC(N=Cc1ccccc1)c1ccccc1)c1ccccc1 (stereo not drawn) = 1.02
• O=C(NNc1c(Cl)cccc1Cl)c1ccc([N+](=O)[O-])o1 = 0.974
• COc1cc(OC)cc(/C(N)=N\O)c1 = 1.01
• O=S(=O)(Nc1cc(-c2cccs2)nn1-c1ccc(I)cc1)c1cccc(F)c1 = 1.03
• N#CC(C#N)=NNc1ccc(C(F)(F)F)cc1 = 0.132
• CSc1sc(-c2ccn[nH]2)c(-c2ccccc2)c1C#N = 1.04
• CSc1nc(Sc2n[nH]c(-c3ccccc3)n2)cc(Sc2n[nH]c(-c3ccccc3)n2)n1 = 1.09
• FC(F)(F)c1ccc(NC(=S)Nc2ccc(C(F)(F)F)cc2Cl)c(Cl)c1 = 1.03
• O=C(Nc1ccc(Cl)cc1)c1csc([N+](=O)[O-])c1 = 0.857
• N#C/C(=N/Nc1ccc(C(F)(F)F)cc1)C(=O)C1CC1 = 0.996
• CCOC(=O)C(NC(C)=O)(Nc1ccc(F)c(Cl)c1)C(F)(F)F (stereo not drawn) = 1.07
• O=C1CSC(=Nc2cc(Cl)cc(Cl)c2)N1Cc1cccnc1 = 1.02
• COc1ccc(/C(C#N)=C2C=C/C(=N/O)C(Cl)=C\2)cc1 = 0.866
• Cc1nc([N+](=O)[O-])cn1CC(=O)c1ccc(Cl)cc1 = 1.02
• CN(NC(=S)Nc1cc(Cl)ccc1Cl)c1ccc(C(F)(F)F)cc1[N+](=O)[O-] = 0.99
• CN(C)c1nc(=S)ss1 = 0.342
